Biological target: Plasmepsin V (Plasmodium falciparum (isolate 3D7))
Sequence (Q8I6Z5 whole entry): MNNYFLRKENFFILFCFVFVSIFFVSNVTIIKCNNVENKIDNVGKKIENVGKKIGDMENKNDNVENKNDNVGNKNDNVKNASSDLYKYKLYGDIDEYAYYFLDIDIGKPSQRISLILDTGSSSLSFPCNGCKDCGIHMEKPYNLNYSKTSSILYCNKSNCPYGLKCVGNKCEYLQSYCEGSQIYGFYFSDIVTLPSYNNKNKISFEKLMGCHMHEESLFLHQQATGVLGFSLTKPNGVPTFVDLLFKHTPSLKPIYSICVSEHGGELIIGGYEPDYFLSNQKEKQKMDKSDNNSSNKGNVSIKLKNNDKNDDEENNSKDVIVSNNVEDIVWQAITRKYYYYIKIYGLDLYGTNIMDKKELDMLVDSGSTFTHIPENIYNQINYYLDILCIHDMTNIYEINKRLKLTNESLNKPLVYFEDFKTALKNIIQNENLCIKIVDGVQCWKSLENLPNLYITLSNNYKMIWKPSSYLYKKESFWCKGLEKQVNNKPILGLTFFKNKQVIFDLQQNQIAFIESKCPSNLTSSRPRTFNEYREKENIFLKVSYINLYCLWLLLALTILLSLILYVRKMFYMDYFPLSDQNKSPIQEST
Assay: Inhibition of Plasmodium falciparum plasmepsin V assessed as cleavage of wtKAHRP fluorogenic substrate
pIC50: −log10 of the molar value. Square brackets hold non-standard residues; d marks the D form. Peptide text beside a SMILES is read from it. Sta = CC(C)C[C@H](N)[C@@H](O)CC(=O)O; GABA = NCCCC(=O)O
test.readout: pIC50

compound	test.readout	val
CC(=O)N[C@@H](CCCNC(=N)N)C(=O)N[C@@H](C)C(=O)N[C@@H](CC(C)C)[C@@H](O)CC(=O)NCCCC(N)=O (Ac-RA[Sta][GABA]-NH2)	pIC50	6.06

P: CC(C)C[C@H](NC(=O)[C@H](C)NC(=O)[C@H](CCCNC(=N)N)NC(=O)OCc1ccccc1)[C@@H](O)CC(=O)NC1CCCCC1
Q: CC(C)C[C@H](NC(=O)[C@@H](NC(=O)[C@H](CCCNC(=N)N)NS(=O)(=O)Cc1ccccc1)C(C)C)[C@@H](O)CC(=O)NCCc1ccccc1
Select one. Lower pIC50: P or Q Refer to your chosen entry by its label in the reply.
P
(P: 6.21, Q: 7.72)

I: CC(C)C[C@H](NC(=O)[C@H](CCCNC(=N)N)NC(=O)OCc1ccccc1)C(=O)N[C@@H](CC(C)C)[C@@H](O)CC(=O)NC1CCCCC1
II: CC(C)C[C@H](NC(=O)[C@H](C)NC(=O)[C@H](CCCNC(=N)N)NC(=O)OCc1ccccc1)[C@@H](O)CC(=O)NC1Cc2ccccc2C1
Select one. Lower pIC50: I or II Refer to your chosen entry by its label in the reply.
II
(II: 6.11, I: 7.11)

###

Biological target: Plasmepsin V (Plasmodium falciparum (isolate 3D7))
Test: Inhibition of Plasmodium falciparum plasmepsin V assessed as cleavage of wtKAHRP fluorogenic substrate at 1 uM
Square brackets hold non-standard residues; d marks the D form. Peptide text beside a SMILES is read from it. * marks the point of attachment. Sta = CC(C)C[C@H](N)[C@@H](O)CC(=O)O; NHPhenethyl = c1ccc(CCN*)cc1; Alloc = C=CCOC(=O)*; Bz = O=C(c1ccccc1)*
test.readout: inhibition (%)

compound	system.tested	val
CC(C)COC(=O)N[C@@H](CCCNC(=N)N)C(=O)N[C@@H](C)C(=O)N[C@@H](CC(C)C)[C@@H](O)CC(=O)NCCc1ccccc1	Plasmepsin V (Plasmodium falciparum (isolate 3D7))	47

P: CC(C)C[C@H](NC(=O)[C@H](C)NC(=O)[C@H](CCCNC(=N)N)NC(=O)c1ccccc1)[C@@H](O)CC(=O)NCCc1ccccc1 (Bz-Arg-Ala-[Sta]-NHPhenethyl)
Q: C=CCOC(=O)N[C@@H](CCCNC(=N)N)C(=O)N[C@@H](C)C(=O)N[C@@H](CC(C)C)[C@@H](O)CC(=O)NCCc1ccccc1 (Alloc-Arg-Ala-[Sta]-NHPhenethyl)
Select one. Lower inhibition: P or Q Refer to your chosen entry by its label in the reply.
Q
(Q: 35%, P: 62%)

###

Target: Cathepsin D (Homo sapiens, UniProt P07339)
Sequence (P07339 65-162 limits assumed): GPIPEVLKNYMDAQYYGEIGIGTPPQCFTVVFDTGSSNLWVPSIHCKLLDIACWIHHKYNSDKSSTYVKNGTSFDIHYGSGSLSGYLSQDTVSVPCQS
Sequence (P07339 169-412 limits assumed): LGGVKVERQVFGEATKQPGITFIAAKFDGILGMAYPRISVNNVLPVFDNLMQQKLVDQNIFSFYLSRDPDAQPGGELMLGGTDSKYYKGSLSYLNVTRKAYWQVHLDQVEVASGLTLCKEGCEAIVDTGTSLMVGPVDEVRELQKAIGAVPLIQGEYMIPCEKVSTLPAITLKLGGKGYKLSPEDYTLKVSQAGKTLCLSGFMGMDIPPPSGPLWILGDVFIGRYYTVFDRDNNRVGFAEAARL
Assay: Inhibition of human cathepsin D assessed as cleavage of wtKAHRP fluorogenic substrate
pIC50: −log10 of the molar value. Square brackets hold non-standard residues; d marks the D form. Peptide text beside a SMILES is read from it. * marks the point of attachment. Sta = CC(C)C[C@H](N)[C@@H](O)CC(=O)O; Cbz = O=C(OCc1ccccc1)*; NHBn = c1ccc(CN*)cc1
Listed molecules paired with reported pIC50

molecule	pIC50
CC(C)C[C@H](NC(=O)[C@H](C)NC(=O)[C@H](CCCNC(=N)N)NC(=O)OCc1ccccc1)[C@@H](O)CC(=O)NCc1ccccc1 (Cbz-Arg-Ala-[Sta]-NHBn)	< 4.00
CC(C)C[C@H](NC(=O)[C@H](C)NC(=O)[C@H](CCc1ccccc1)NC(=O)OCc1ccccc1)[C@@H](O)CC(=O)NC1CCCCC1	7.37
CC(=O)N[C@@H](CCCNC(=N)N)C(=O)N[C@@H](C)C(=O)N[C@@H](CC(C)C)[C@@H](O)CC(=O)N[C@@H](CCC(N)=O)C(N)=O (Ac-RA[Sta]Q-NH2)	< 4.00
CC(C)C[C@H](NC(=O)[C@H](C)NC(=O)[C@H](CCCNC(=N)N)NC(=O)OCc1ccccc1)[C@@H](O)CC(=O)NC1Cc2ccccc2C1	< 4.00
CC(C)C[C@H](NC(=O)[C@H](C)NC(=O)[C@H](CCCNC(=N)N)NC(=O)OCc1ccccc1)[C@@H](O)CC(=O)NCCc1ccc(Cl)cc1	< 4.00

With those in mind, consider the next molecule.
Please look up its pIC50: CC(C)C[C@H](NC(=O)[C@@H](NC(=O)[C@H](CCCNC(=N)N)NS(=O)(=O)Cc1ccccc1)C(C)C)[C@@H](O)CC(=O)NCCc1ccccc1
4.49
